# experiment summary: Human pharmacokinetics, healthy subjects, 24- or 72-hour infusion of 54 ng/kg/min
# setup conditions: male, in vivo, 54 ng/kg, healthy subjects, 54 ng/kg/min, 24 Hours Male, median, N = 7
quantity kind: Tmax (h)
I only need the number, in h, no unit after it.

Query string: # get_value(readout='Tmax', item= H-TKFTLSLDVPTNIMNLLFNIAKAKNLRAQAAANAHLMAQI-NH2 [SEQ ID NO: 1] )
Result string: 16

###

# experiment summary: Nonclinical pharmacokinetics in dogs
# Set-up: species or system dog
# setup conditions: male, in vivo; dog IV infusion 3 hours, M, 3.33 ng/kg/min
quantity kind: AUC(0-inf) (ng·h/mL)
I only need the number, in ng·h/mL, no unit after it.

Query string: # get_value(readout='AUC(0-inf)', item= H-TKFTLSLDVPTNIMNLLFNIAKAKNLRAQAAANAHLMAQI-NH2 [SEQ ID NO: 1] )
Result string: 2.34

###

# experiment summary: Human pharmacokinetics, heart failure subjects, 7.5-hour continuous ascending dose IV infusion
# setup conditions: in vivo, infusion rate 9/18/36 ng/kg/min, median, N = 3
quantity kind: Tmax (h)
I only need the number, in h, no unit after it.

Query string: # get_value(readout='Tmax', item= H-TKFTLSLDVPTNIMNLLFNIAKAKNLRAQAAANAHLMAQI-NH2 [SEQ ID NO: 1] )
Result string: 7.48

###

# experiment summary: Human pharmacokinetics, healthy subjects, 7.5-hour continuous ascending dose IV infusion
# Type: in vivo
# setup conditions: human, in vivo, healthy subjects, infusion rate 36/72/144 ng/kg/min, N = 1
quantity kind: AUC(0-inf) (ng·h/mL)
I only need the number, in ng·h/mL, no unit after it.

Query string: # get_value(readout='AUC(0-inf)', item= H-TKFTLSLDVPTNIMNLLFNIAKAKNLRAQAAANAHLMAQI-NH2 [SEQ ID NO: 1] )
Result string: 138

###

# experiment summary: Nonclinical pharmacokinetics in dogs
# Design: species or system dog
# setup conditions: male, in vivo; dog IV infusion 3 hours, M, 33.3 ng/kg/min; read-out: Vss
quantity kind: Vd
Include the unit after the number when you answer.

Query string: # get_value(readout='Vd', item= H-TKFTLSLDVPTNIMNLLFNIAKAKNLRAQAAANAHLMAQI-NH2 [SEQ ID NO: 1] )
Result string: 0.161 L/kg

###

# experiment summary: Nonclinical pharmacokinetics in dogs
# Set-up: species or system dog
# setup conditions: male, dog, in vivo, iv, Vss
quantity kind: Vd (L/kg)
I only need the number, in L/kg, no unit after it.

Query string: # get_value(readout='Vd', item= H-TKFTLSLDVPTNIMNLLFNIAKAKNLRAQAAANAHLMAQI-NH2 [SEQ ID NO: 1] )
Result string: 0.216

###

# experiment summary: Human pharmacokinetics, healthy subjects, 7.5-hour continuous ascending dose IV infusion
# Assay type: in vivo
# setup conditions: human, in vivo, healthy subjects, infusion rate 9/18/36 ng/kg/min, mean, N = 5
quantity kind: AUC(0-inf) (ng·h/mL)
I only need the number, in ng·h/mL, no unit after it.

Query string: # get_value(readout='AUC(0-inf)', item= H-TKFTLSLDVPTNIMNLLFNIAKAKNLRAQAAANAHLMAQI-NH2 [SEQ ID NO: 1] )
Result string: 28.9
